Tested on: L1210 leukemia ip in BDF1 mice, survival T/C
experimental details: NCI In Vivo Anticancer Drug Screen. Data for tumor model L1210 Leukemia (intraperitoneal) in B6D2F1 (BDF1) mice
conditions used: endpoint: mean survival time; dose: 100.0 mg/kg/injection; schedule: Q01DX009 (ip); vehicle: Klucel (hydroxypropylcellulose) (HPC); higher = longer survival
Toxic doses and inconclusive results are not listed.
test readout: T/C

[[record]]
mol = "CCOC(=O)/C(C#N)=C/c1ccc(O)c(OC)c1"
test_target = "L1210 leukemia ip in BDF1 mice, survival T/C"
result_value = "101 % of control"


// for each compound below, give its T/C
1. CNC(=O)Nc1ccc(Cl)cc1C
2. O=C1CN=C(c2ccccc2Cl)c2cc(Cl)ccc2N1

Given back:
["98 % of control", "97 % of control"]

// for each compound below, give its T/C
1. O=CNc1ccc(Br)cc1
2. COc1ccccc1NC(=O)Nc1cccc(C)c1C
3. c1cc2c(cc1C1SCSCS1)OCO2

Given back:
1: 98 % of control; 2: 96 % of control; 3: 98 % of control

Asked: Query (compound): `O=C(Nc1ccccc1F)c1ccco1` ; field requested: T/C
Given back: 100 % of control

* * *

Tested on: L1210 leukemia ip in BDF1 mice, survival T/C
experimental details: NCI In Vivo Anticancer Drug Screen. Data for tumor model L1210 Leukemia (intraperitoneal) in B6D2F1 (BDF1) mice
conditions used: endpoint: mean survival time; dose: 400.0 mg/kg/injection; schedule: Q04DX003 (ip); vehicle: saline with Tween-80
Toxic doses and inconclusive results are not listed. No stated cut-off is given here; in the data, active means T/C of 150% or more; inactive means T/C below 125%.
Pick one and only one: 1.0 = active, 0.0 = inactive

[[record]]
compound = "CN(CCc1ccccc1)/N=N/c1nc[nH]c1C(N)=O"
assigned_category = 1.0


Asked: Hi, do you know how O=C(NC(O)C(Cl)(Cl)Cl)c1ccccc1O (stereo not given) came out in this test?
Given back: 0.0

Asked: Hi, do you know how `CCCCCCCCCCCCCCCCSc1ccc(Br)cc1` came out in this test?
Given back: 0.0

Asked: Hi, do you know how `Nc1nc(=O)n(CC(=O)c2cccs2)cc1F` came out in this test?
Given back: 0.0

Asked: Hi, do you know how `CN(C)c1ccc(/C=C2\C=Nc3ccccc32)cc1` came out in this test?
Given back: 0.0

Asked: Hi, do you know how `CCOC(=O)c1ccnc2ccc(O)cc12` came out in this test?
Given back: 0.0

Asked: Hi, do you know how `Cc1ccc(N=Cc2cc(Cl)cc(Cl)c2O)cc1.Cc1ccc(N=Cc2cc(Cl)cc(Cl)c2O)cc1.[Co]` came out in this test?
Given back: 0.0

Asked: Hi, do you know how `COc1cc(OC)c(NC(=O)NC(C)C)cc1Cl` came out in this test?
Given back: 0.0

Asked: Hi, do you know how CC(C)C(C(=O)c1ccccc1)c1ccccc1 (stereo not given) came out in this test?
Given back: 0.0

* * *

Could you please report measured T/C for the items listed next?
Test system: L1210 leukemia ip in BDF1 mice, survival T/C
experimental details: NCI In Vivo Anticancer Drug Screen. Data for tumor model L1210 Leukemia (intraperitoneal) in B6D2F1 (BDF1) mice
conditions used: endpoint: mean survival time; dose: 100.0 mg/kg/injection; schedule: Q04DX003 (ip); vehicle: Klucel (hydroxypropylcellulose) (HPC); higher = longer survival
Toxic doses and inconclusive results are not listed. Square brackets hold non-standard residues; d marks the D form. Peptide text beside a SMILES is read from it. * marks the point of attachment. Cbz = O=C(OCc1ccccc1)*; Sar = CNCC(=O)O

Here is how some compounds turned out for T/C.
[[record]]
compound = "CC(C)(CS(C)(=O)=O)C(=O)OCC(=O)c1ccccc1"
result_value = "108 % of control"

[[record]]
compound = "CC(C)CC(C)N (configuration not stated)"
result_value = "100 % of control"

[[record]]
compound = "OC(/C=C/c1ccccc1)(c1ccccc1)c1ccccc1"
result_value = "94 % of control"

[[record]]
compound = "Cc1ccccc1OS(=O)(=O)c1ccccc1[N+](=O)[O-]"
result_value = "95 % of control"

[[record]]
compound = "CS(=O)(=O)Nc1ccc(C(=O)O)cc1"
result_value = "100 % of control"

[[record]]
compound = "O=c1sc(=S)[nH]c2ccccc12"
result_value = "88 % of control"

[[record]]
compound = "CC(=O)Nc1ccc(Cl)c(Cl)c1"
result_value = "107 % of control"

[[record]]
compound = "OCCCCCn1cnc2c(=S)nc[nH]c21"
result_value = "93 % of control"


// for each compound below, give its T/C
1. CCCCCCCCCCCCC/C=C\CC(CC(=O)O)C(=O)Nc1cccc2cnccc12 (configuration not stated)
2. CN(CC(N)=O)C(=O)CNC(=O)OCc1ccccc1 (Cbz-Gly-[Sar]-NH2)
3. CC(=O)[C@H]1[C@H](C)C[C@H]2[C@@H]3CCC4=CC(=O)CC[C@]4(C)[C@@]3(F)[C@@H](O)C[C@@]21C
4. Cc1nc(Cl)cc(=O)[nH]1

Given back:
1. 97 % of control
2. 96 % of control
3. 100 % of control
4. 101 % of control
